Reference for the values: the supplement of paper PMC9732359

- Protocol Summary: protein stability index of a GFP-peptide fusion (yeast GPS) (PSI 1-4); higher = more stable; sorted into four equal gates, so the index is relative within each strain
- Run Parameters: pdr5∆
Classification field: Fulfilled = protein stability index at or over 2; Not fulfilled = protein stability index under 2.

# bool: protein stability index of AIACYSGYNQEDSMIMN [RPB2] >= 2
Not fulfilled

# bool: protein stability index of LLHSKPSLLLQKDQDGR [NAS6] >= 2
Fulfilled

# bool: protein stability index of NGDLTVSLCAKNMGLVP [SSN2] >= 2
Fulfilled

# bool: protein stability index of NINAKMETRINILLRER [YIL149C/MLP2] >= 2
Fulfilled

# bool: protein stability index of TSQKMKKMVYVLDSMTK [SRP54] >= 2
Fulfilled
